Where do the numbers come from? From ChEMBL document CHEMBL5104124.

# Test system: HepG2
# measurementNotes: Antiproliferative activity against human HepG2 cells assessed as cell growth inhibition by MTT assay
# Assay type: functional, cell-based
measureName: pIC50
One number for each entry, as −log10 of the molar value.

Q) Provide one value: measured pIC50 of C[C@]12CC[C@H](O)CC1=CC[C@@H]1[C@@H]2CC[C@]2(C)c3nc(N)nc(-c4ccccc4Cl)c3C[C@@H]12
A) 5.27

====

# systemUnderTest: Tubulin (Sus scrofa, UniProt P02554+P02550)
# measurementNotes: Inhibition of porcine brain tubulin polymerization preincubated for 30 mins followed by GTP addition by absorbance based analysis
# Type: tissue-based
measureName: IC50
Phrase the answer as number then unit, nothing more needed.

> print(dat)
                                  molsmiles  observedresult
1  COc1cc2c(cc1O)CC[C@@H]1[C@@H]2CC[C@]2(C)[C@@H](c3cn(-c4ccc(C(F)(F)F)cc4)nn3)CC[C@@H]12          8.1 µM

Please give IC50 for each item listed below.
1. COc1cc2c(cc1OS(N)(=O)=O)CC[C@@H]1[C@@H]2CC[C@]2(C)C(c3ccnc(Cl)c3)=CC[C@@H]12
2. COc1cc2c(cc1OS(N)(=O)=O)CC[C@@H]1[C@@H]2CC[C@]2(C)C(c3cncc(Cl)c3)=CC[C@@H]12
3. COc1cc2c(cc1O)CC[C@@H]1[C@@H]2CC[C@]2(C)[C@@H](c3cn(-c4ccc(OC(F)(F)F)cc4)nn3)CC[C@@H]12

A)
1. 2.3 µM
2. 2.1 µM
3. 5.9 µM

====

# measurementNotes: Antiproliferative activity against human HMEC-1 cells assessed as cell growth inhibition measured after 4 days by coulter counter assay
# Format: toxicity, cell-based
measureName: IC50 at 4 days (nM)
One number for each entry, in nM.

Q) Provide one value: measured IC50 at 4 days of C[C@]12CC[C@H](O)CC1=CC[C@@H]1[C@@H]2CC[C@]2(C)C(c3ccc4[nH]ccc4c3)=CC[C@@H]12
A) 590

====

# systemUnderTest: 3-oxo-5-alpha-steroid 4-dehydrogenase 2 (Rattus norvegicus)
# Sequence (P31214 whole entry): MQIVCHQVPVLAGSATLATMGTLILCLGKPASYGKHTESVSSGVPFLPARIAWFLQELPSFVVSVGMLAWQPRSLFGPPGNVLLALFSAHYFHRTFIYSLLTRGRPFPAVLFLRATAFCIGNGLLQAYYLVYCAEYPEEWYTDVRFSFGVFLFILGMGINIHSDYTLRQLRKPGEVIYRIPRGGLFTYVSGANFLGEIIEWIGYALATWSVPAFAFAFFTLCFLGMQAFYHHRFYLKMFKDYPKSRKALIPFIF
measureName: pIC50
Numbers only, as −log10 of the molar value.

Q) Provide one value: measured pIC50 of C[C@]12CC[C@H](OC(=O)C3CC3)CC1=CC[C@@H]1[C@@H]2CC[C@]2(C)C(n3cnc4ccccc43)=C(C=O)C[C@@H]12
A) 8.40

====

# systemUnderTest: 3-oxo-5-alpha-steroid 4-dehydrogenase 1 (Rattus norvegicus, UniProt P24008)
# Sequence (P24008 whole entry): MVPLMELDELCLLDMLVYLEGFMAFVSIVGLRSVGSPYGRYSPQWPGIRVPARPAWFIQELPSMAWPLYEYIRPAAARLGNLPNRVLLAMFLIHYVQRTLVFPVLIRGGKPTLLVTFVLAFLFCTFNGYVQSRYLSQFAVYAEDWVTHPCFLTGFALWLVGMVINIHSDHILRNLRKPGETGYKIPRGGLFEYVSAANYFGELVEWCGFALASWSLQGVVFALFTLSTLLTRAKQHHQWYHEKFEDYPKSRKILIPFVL
measureName: IC50 (nM)
Give bare numbers, in nM.

Q) Provide one value: measured IC50 of C[C@]12CC[C@H](OC(=O)C3CC3)CC1=CC[C@@H]1[C@@H]2CC[C@]2(C)C(n3cnc4ccccc43)=C(C=O)C[C@@H]12
A) 320

====

# Test system: EC9706
# measurementNotes: Antiproliferative activity against human EC9706 cells assessed as cell growth inhibition measured after 72 hrs by MTT assay
# Assay type: functional, cell-based
# conditionsUsed: EC9706, 72 h
measureName: pIC50
Answers are plain numbers, as −log10 of the molar value.

Q) Provide one value: measured pIC50 of C[C@]12CC[C@H](O)CC1=CC[C@@H]1[C@@H]2CC[C@]2(C)c3nc(NCc4ccc(Cl)cc4)sc3C[C@@H]12
A) 4.41

====

# systemUnderTest: 3-oxo-5-alpha-steroid 4-dehydrogenase 2 (Homo sapiens, UniProt P31213)
# Sequence (P31213 whole entry): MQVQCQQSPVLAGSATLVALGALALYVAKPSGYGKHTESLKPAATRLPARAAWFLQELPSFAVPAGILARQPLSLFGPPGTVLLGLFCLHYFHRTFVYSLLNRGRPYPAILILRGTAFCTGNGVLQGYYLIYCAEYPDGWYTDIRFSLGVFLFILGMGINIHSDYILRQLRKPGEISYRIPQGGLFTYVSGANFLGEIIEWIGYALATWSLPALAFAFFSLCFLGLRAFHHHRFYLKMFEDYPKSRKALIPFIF
# measurementNotes: Inhibition of SRD5A2 in HEK293 incubated for 60 mins by thin layer chromatography
Assign pIC50 to each entry below.
Give bare numbers, as −log10 of the molar value.

> print(dat)
                                  molsmiles  measurename  observedresult
1  C[C@]12CC[C@H](O)CC1=CC[C@@H]1[C@@H]2CC[C@]2(C)C(c3ccn(-c4ccc(Cl)cc4)n3)=CC[C@@H]12        pIC50            7.45

Pending molecule:
Q) Provide one value: measured pIC50 of CC(=O)N1N=C(C2=CC[C@H]3[C@@H]4CC=C5C[C@@H](O)CC[C@]5(C)[C@H]4CC[C@]23C)C[C@H]1c1ccc(F)cc1
A) 7.56

====

# Tested on: MGC-803
# measurementNotes: Antiproliferative activity against human MGC-803 cells assessed as cell growth inhibition measured after 72 hrs by MTT assay
# Assay type: functional, cell-based
# conditionsUsed: MGC-803, 72 h
measureName: pIC50
Numbers only, as −log10 of the molar value.

Q) Provide one value: measured pIC50 of C[C@]12CC[C@H](O)CC1=CC[C@@H]1[C@@H]2CC[C@]2(C)c3nc(NCc4ccc(Cl)cc4)sc3C[C@@H]12
A) 4.99

====

# systemUnderTest: 3-oxo-5-alpha-steroid 4-dehydrogenase 1 (Homo sapiens)
# Sequence (P18405 whole entry): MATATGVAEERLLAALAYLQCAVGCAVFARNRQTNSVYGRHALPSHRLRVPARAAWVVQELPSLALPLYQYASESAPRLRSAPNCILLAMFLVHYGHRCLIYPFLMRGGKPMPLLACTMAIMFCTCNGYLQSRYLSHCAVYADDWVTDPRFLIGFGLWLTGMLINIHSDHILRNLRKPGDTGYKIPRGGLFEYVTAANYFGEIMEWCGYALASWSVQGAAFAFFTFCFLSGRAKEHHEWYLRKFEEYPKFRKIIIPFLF
measureName: IC50

> print(dat)
                                  molsmiles  observedresult
1  C[C@]12CC[C@H](O)CC1=CC[C@@H]1[C@@H]2CC[C@]2(C)C(c3ccn(-c4ccc(Cl)cc4)n3)=CC[C@@H]12         14.2 nM

Pending molecule:
Q) Provide one value: measured IC50 of CC(=O)N1N=C(C2=CC[C@H]3[C@@H]4CC=C5C[C@@H](O)CC[C@]5(C)[C@H]4CC[C@]23C)C[C@H]1c1ccc(F)cc1
A) 13.9 nM

====

# Test system: MCF7
# measurementNotes: Antiproliferative activity against human MCF7 cells assessed as cell growth inhibition measured after 72 hrs by MTT assay
# Type: functional, cell-based
# conditionsUsed: MCF7, 72 h
measureName: pIC50
Numbers only, as −log10 of the molar value.

Q) Consider the compound C[C@]12CC[C@H](O)CC1=CC[C@@H]1[C@@H]2CC[C@]2(C)C3=NN(c4ccc(C#N)cc4)C[C@@H]3C[C@@H]12 tested on MCF7; state its pIC50.
A) 5.96

====

# Test system: OVCAR-3
# measurementNotes: Antiproliferative activity against human OVCAR-3 cells assessed as cell growth inhibition measured after 5 days by MTT assay
# Assay type: functional, cell-based
# conditionsUsed: OVCAR-3, 120 h
measureName: pIC50
Give bare numbers, as −log10 of the molar value.

> print(dat)
                                  molsmiles  observedresult
1  COc1cc2c(cc1O)CC[C@@H]1[C@@H]2CC[C@]2(C)[C@@H](c3cn(-c4ccc(C(F)(F)F)cc4)nn3)CC[C@@H]12            5.85

Pending compound:
Q) Consider the compound COc1cc2c(cc1O)CC[C@@H]1[C@@H]2CC[C@]2(C)[C@@H](c3cn(-c4ccc(OC(F)(F)F)cc4)nn3)CC[C@@H]12 tested on OVCAR-3; state its pIC50.
A) 6.05

====

# System: CCRF-CEM
# measurementNotes: Antiproliferative activity against human CEM cells assessed as cell growth inhibition
# Format: functional, cell-based
Assign pIC50 to each entry below.
Give bare numbers, as −log10 of the molar value.

> print(dat)
                                  molsmiles  observedresult
1  COc1cc2c(cc1OS(N)(=O)=O)CC[C@@H]1[C@@H]2CC[C@]2(C)C(c3ccnc(Cl)c3)=CC[C@@H]12            6.59

Pending compound:
Q) Provide one value: measured pIC50 of COc1cc2c(cc1OS(N)(=O)=O)CC[C@@H]1[C@@H]2CC[C@]2(C)C(c3cncc(Cl)c3)=CC[C@@H]12
A) 7.41
